Target: mA2a/CHO (Mus musculus (Mouse), UniProt Q60613)
Sequence (Q60613 whole entry): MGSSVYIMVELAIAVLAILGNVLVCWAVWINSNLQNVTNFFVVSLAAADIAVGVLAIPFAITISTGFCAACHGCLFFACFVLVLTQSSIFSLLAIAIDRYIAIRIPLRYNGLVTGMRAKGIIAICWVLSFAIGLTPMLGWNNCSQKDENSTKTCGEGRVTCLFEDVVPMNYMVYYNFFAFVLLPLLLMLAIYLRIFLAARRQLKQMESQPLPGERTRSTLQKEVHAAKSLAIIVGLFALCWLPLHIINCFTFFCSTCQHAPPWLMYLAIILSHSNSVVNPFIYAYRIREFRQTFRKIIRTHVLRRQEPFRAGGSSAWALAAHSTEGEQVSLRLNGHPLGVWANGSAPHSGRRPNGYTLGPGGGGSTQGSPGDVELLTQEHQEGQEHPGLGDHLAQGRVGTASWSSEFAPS
Experiment: cAMP inhibition assay in mA2a/CHO cells, 10 μM adenosine;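 note: compounds preincubated 30 min at 37 °C before the adenosine challenge, then 30 min further stimulation, readout after 60 min detection reagent incubation at room temperature in 384-well plates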
Format: cell-based
Settings: read-out: cAMP & FLIPR IC50 (nM) mA2a
IC50 vs 100 nM: less than gives criterion met; not less than gives criterion not met.

{"compound": "Nc1nc(-c2ncco2)c(-c2ccc(=O)n(CCCO)c2)nc1C(=O)NCc1c(F)cccc1F [Example 102]", "category": "criterion met"}
{"compound": "Cn1cnc2ccc(-c3nc(C(=O)NCc4ncccc4NCCO)c(N)nc3-c3ccc(F)cc3)cc21 [Example 117]", "category": "criterion met"}
{"compound": "CNc1cccnc1CNC(=O)c1nc(-c2ccc(=O)n(C)c2)c(-c2ncco2)nc1N [Example 46]", "category": "criterion not met"}
{"compound": "Cn1cc(-c2nc(C(=O)NCc3ccccc3OC(F)F)c(N)nc2-c2ccc(F)cc2)ccc1=O [Example 72]", "category": "criterion met"}
{"compound": "CN1CCC[C@H]1CNC(=O)c1nc(-c2ccc3ncn(C)c3c2)c(-n2nccn2)nc1N [Example 130]", "category": "criterion not met"}
{"compound": "Cc1cc(-c2nc(C(=O)NCc3ccccc3C)c(N)nc2-c2ccc(F)cc2)cc(C)n1 [Example 81]", "category": "criterion not met"}
{"compound": "Cc1cnc2ccc(-c3nc(C(=O)NCC4CC4)c(N)nc3-c3ncco3)cn12 [Example 155]", "category": "criterion met"}
{"compound": "COc1ncccc1CNC(=O)c1nc(-c2cc(C)nc(C)c2)c(-c2ccc(F)cc2)nc1N [Example 66]", "category": "criterion not met"}
{"compound": "Cc1scnc1CNC(=O)c1nc(-c2ccc(=O)n(C)c2)c(-c2ncco2)nc1N [Example 22]", "category": "criterion not met"}
{"compound": "CCc1ccccc1CNC(=O)c1nc(-c2cc(C)nc(C)c2)c(-c2ccc(F)cc2)nc1N [Example 84]", "category": "criterion not met"}
{"compound": "Cc1cnc2ccc(-c3nc(C(=O)NCc4cccc(N[C@H]5C[C@@H](N(C)C)C5)n4)c(N)nc3-c3ncco3)cn12 [Cmpd. 224]", "category": "criterion met"}
{"compound": "Cc1cnc2ccc(-c3nc(C(=O)N[C@@H]4CCCOC4)c(N)nc3-c3ncco3)cn12 (single isomer, unassigned; isomer 2) [Example 164]", "category": "criterion met"}
{"compound": "CN1CCCC1CNC(=O)c1nc(-c2ccc3ncc(Cl)n3c2)c(-c2ncco2)nc1N (stereo in doubt) [Cmpd. 209]", "category": "criterion not met"}
{"compound": "CN(C)c1ccnc(CNC(=O)c2nc(-c3ccc(=O)n(C)c3)c(-c3ncco3)nc2N)n1 [Example 25]", "category": "criterion not met"}
{"compound": "Cc1cnc2ccc(-c3nc(C(=O)NC[C@H]4CC(F)(F)CN4C)c(N)nc3-c3ncco3)cn12 [Example 162]", "category": "criterion met"}
{"compound": "COC1CCC(NC(=O)c2nc(-c3ccc4ncc(C)n4c3)c(-c3ncco3)nc2N)CC1 (stereo not drawn) [Example 249]", "category": "criterion met"}
{"compound": "CC1CN(c2nc(C(=O)NCc3c(F)cccc3F)c(N)nc2-c2ccc(F)cc2)CC(C)O1 (stereo not drawn) [Example 6]", "category": "criterion not met"}
{"compound": "Cc1cnc2ccc(-c3nc(C(=O)NCC4CN(C)CCO4)c(N)nc3-c3ccc(F)cc3)cn12 (single isomer, unassigned; isomer 2) [Example 250]", "category": "criterion met"}
{"compound": "COc1cc(F)ccc1CNC(=O)c1nc(-c2cc(C)nc(C)c2)c(-c2ccc(F)cc2)nc1N [Example 52]", "category": "criterion not met"}
{"compound": "Cc1cnc2ccc(-c3nc(C(=O)N4CC[C@@H](N(C)C)C4)c(N)nc3-c3ccc(F)cc3)cn12 [Example 203-1]", "category": "criterion not met"}
{"compound": "Cc1cnc2ccc(-c3nc(C(=O)NC[C@H]4CCCO4)c(N)nc3-n3nccn3)cn12 [Cmpd. 229]", "category": "criterion met"}
{"compound": "COC[C@H](C)NC(=O)c1nc(-c2ccc3ncc(C)n3c2)c(-c2ncco2)nc1N [Example 160]", "category": "criterion met"}
{"compound": "Cc1cnc2ccc(-c3nc(C(=O)N[C@H]4CCN(C)C4)c(N)nc3-c3ccc(F)cc3)cn12 [Example 200-2]", "category": "criterion not met"}
{"compound": "CCc1cnn2ccc(-c3nc(C(=O)NC[C@H]4CCCN4C)c(N)nc3-c3ncco3)cc12 [Example 128]", "category": "criterion not met"}
{"compound": "COCCn1cc(-c2nc(C(=O)NCc3c(F)cccc3F)c(N)nc2-c2ncco2)ccc1=O [Example 103]", "category": "criterion met"}
{"compound": "Cc1cnc2ccc(-c3nc(C(=O)NC[C@H]4CCOC4)c(N)nc3-n3nccn3)cn12 [Example 242]", "category": "criterion met"}
{"compound": "Cc1cnc2ccc(-c3nc(C(=O)NCc4cccc(N5CC(N(C)C)C5)n4)c(N)nc3-c3ncco3)cn12 [Example 111]", "category": "criterion met"}
{"compound": "Cn1cc(-c2nc(C(=O)NCc3ncccc3C(F)(F)F)c(N)nc2-c2ncco2)ccc1=O [Example 11]", "category": "criterion met"}
{"compound": "Cc1cnc2ccc(-c3nc(C(=O)NCC4CCCCO4)c(N)nc3-c3ncco3)cn12 (single isomer, unassigned; isomer 2) [Example 166]", "category": "criterion met"}
{"compound": "COc1c(F)cccc1CNC(=O)c1nc(-c2cc(C)nc(C)c2)c(-c2ccc(F)cc2)nc1N [Example 54]", "category": "criterion not met"}
